system: P388 tumour cells; test: P388 in vivo, life span extension; set-up: species or system mice (F1 hybrid, DBA-2 male x C57 B1 female); key: Y: implies a significant value of drug activity at the stated dose; N: implies no or not statistically significant activity; conditions: at the stated (optimal) dose
outcome_measure: P388 in vivo Active

Here are 8 compounds together with their reported answers.
[in] Returns the measured P388 in vivo Active for the input compound. Input: "CN(C)CCNC(=O)c1cccc2c(N)c3cc(Cl)ccc3nc12"
[out] N

[in] Returns the measured P388 in vivo Active for the input compound. Input: "CN(C)CCCNC(=O)c1cccc2c(N)c3ccccc3nc12"
[out] N

[in] Returns the measured P388 in vivo Active for the input compound. Input: "CN(C)CCNC(=O)c1cccc2c(N)c3cccc(N)c3nc12"
[out] Y

[in] Returns the measured P388 in vivo Active for the input compound. Input: "CN(C)CCNC(=O)c1cccc2c(N)c3cccc([N+](=O)[O-])c3nc12"
[out] Y

[in] Returns the measured P388 in vivo Active for the input compound. Input: "CN(C)CCNC(=O)c1cccc2c(N)c3cc(N)ccc3nc12"
[out] Y

[in] Returns the measured P388 in vivo Active for the input compound. Input: "CN(C)CCNC(=O)c1cccc2cc3ccccc3nc12"
[out] Y

[in] Returns the measured P388 in vivo Active for the input compound. Input: "Cc1c2ccccc2nc2c(C(=O)NCCN(C)C)cccc12"
[out] N

[in] Returns the measured P388 in vivo Active for the input compound. Input: "Cc1ccc2nc3c(C(=O)NCCN(C)C)cccc3c(N)c2c1"
[out] N

Now look at this one.
[in] Returns the measured P388 in vivo Active for the input compound. Input: "Cc1cccc2c(N)c3cccc(C(=O)NCCN(C)C)c3nc12"
[out] Y

----------
Test system: murine L1210 leukaemic cells
Assay: L1210 in vitro growth inhibition
Type: cell-based
Settings: Mus musculus, drug added to cultures over 70 hours, 50% reduction of counted leukaemia cells, below 1000 nM considered significant, read-out: L1210 in vitro ID50
Method: L1210 in vitro--The culture methods used are described in detail elsewhere (B. C. Baguley and R. Nash, Europ. J. Cancer, 17, 671-679 (1981)). Acceptable reproducibility of data depends critically upon the maintenance of optimal culture conditions. L1210 cells were initially obtained from Dr I. Wodinsky, Arthur D. Little Inc., Boston, U.S.A., under the auspices of the National Cancer Institute. Values below 1000 nM are considered significant.
outcome_measure: pIC50
The value called pIC50 is obtained by taking minus log10 of the concentration in mol/L.

[in] Returns the measured pIC50 for the input molecule. Input: "CN(C)CCNC(=O)c1cccc2c(N)c3cccc([N+](=O)[O-])c3nc12"
[out] 8.89

[in] Returns the measured pIC50 for the input molecule. Input: "CN(C)CCNC(=O)c1cc(N)cc2c(N)c3ccccc3nc12"
[out] 6.79

[in] Returns the measured pIC50 for the input molecule. Input: "CN(C)CCNC(=O)c1cccc2c(N)c3cccc(Cl)c3nc12"
[out] 8.54

[in] Returns the measured pIC50 for the input molecule. Input: "CNc1c2ccccc2nc2c(C(=O)NCCN(C)C)cccc12"
[out] 7.82

[in] Returns the measured pIC50 for the input molecule. Input: "CN(C)CCNC(=O)c1cccc2c(N)c3cc(Cl)ccc3nc12"
[out] 6.14

[in] Returns the measured pIC50 for the input molecule. Input: "COc1ccc2c(N)c3cccc(C(=O)NCCN(C)C)c3nc2c1"
[out] 6.82

[in] Returns the measured pIC50 for the input molecule. Input: "CN(C)CCNC(=O)c1cc([N+](=O)[O-])cc2c(N)c3ccccc3nc12"
[out] 6.50

[in] Returns the measured pIC50 for the input molecule. Input: "COc1cccc2c(N)c3cccc(C(=O)NCCN(C)C)c3nc12"
[out] 8.37

[in] Returns the measured pIC50 for the input molecule. Input: "CN(C)CCNC(=O)c1cccc2c(N)c3ccc(N)cc3nc12"
[out] 7.46

[in] Returns the measured pIC50 for the input molecule. Input: "CN(C)CCNC(=O)c1cccc2c(N)c3ccc([N+](=O)[O-])cc3nc12"
[out] 10.30

[in] Returns the measured pIC50 for the input molecule. Input: "CN(C)CCNC(=O)c1cccc2c(N)c3cc(N)ccc3nc12"
[out] 7.32

[in] Returns the measured pIC50 for the input molecule. Input: "CN(C)CCCNC(=O)c1cccc2c(N)c3ccccc3nc12"
[out] 6.80

[in] Returns the measured pIC50 for the input molecule. Input: "CN(C)CCNC(=O)c1cccc2cc3ccccc3nc12"
[out] 6.98

[in] Returns the measured pIC50 for the input molecule. Input: "Cc1ccc2c(N)c3cccc(C(=O)NCCN(C)C)c3nc2c1"
[out] 7.26

[in] Returns the measured pIC50 for the input molecule. Input: "Cc1ccc2nc3c(C(=O)NCCN(C)C)cccc3c(N)c2c1"
[out] 6.22

[in] Returns the measured pIC50 for the input molecule. Input: "NCCNC(=O)c1cccc2c(N)c3ccccc3nc12"
[out] 6.38

[in] Returns the measured pIC50 for the input molecule. Input: "Nc1c2ccccc2nc2c(C(=O)NCCNCCO)cccc12"
[out] 7.11

[in] Returns the measured pIC50 for the input molecule. Input: "Cc1c2ccccc2nc2c(C(=O)NCCN(C)C)cccc12"
[out] 7.18
